tested on: SW620C cells (cisplatin-resistant); assay: Neutral red uptake viability assay, SW620C; type: cell-based, human; settings: SW620C, 72 h, n = 3; read-out: Cytotoxic activity IC50 (95% CI)
pIC50 for assorted compounds
Give only the number. pIC50 is defined as minus log10 of concentration in molar units.

Any idea what its pIC50 is? The compound is O=C1N/C(=C/c2cccc(-[c-]3cccc3)c2)C(=O)N2CCC[C@@H]12.[Fe+2].c1cc[cH-]c1 [(S,E)-4c] 4.20

Any idea what its pIC50 is? The compound is O=C1N/C(=C\[c-]2cccc2)C(=O)N2CCC[C@@H]12.[Fe+2].c1cc[cH-]c1 [(S,Z)-4a] 4.82

Next:
Any idea what its pIC50 is? The compound is O=C1N/C(=C\c2ccccc2-[c-]2cccc2)C(=O)N2CCC[C@@H]12.[Fe+2].c1cc[cH-]c1 [(S,Z)-4b] 4.92

---

assay: Neutral red uptake viability assay, SW620C; assay type: cell-based, human; details: human, SW620C cells (cisplatin-resistant); SW620C, 72 h, n = 3; read-out: Cytotoxic activity IC50 (95% CI)
MEASURE NAME: IC50 at 72 h

Any idea what its IC50 at 72 h is? The compound is O=C1N/C(=C\c2ccccc2)C(=O)N2CCC[C@@H]12 [(S,Z)-4e] > 100 µM

Then this compound:
Any idea what its IC50 at 72 h is? The compound is O=C1N/C(=C/c2ccccc2)C(=O)N2CCC[C@@H]12 [(S,E)-4e] > 100 µM

---

system: ABCC1-overexpressing SW620M cells; assay: MDR reversal assay (ERP), SW620M; format: cell-based, human; conditions: Homo sapiens; SW620M, drug alone, n = 3
MEASURE NAME: IC50 (µM)
// return numeric value only (unit: µM, not printed)

Any idea what its IC50 is? The molecule is CN(Cc1cnc2nc(N)nc(N)c2n1)c1ccc(C(=O)N[C@@H](CCC(=O)O)C(=O)O)cc1 [Methotrexate, reference compound] 54.1

---

system: SW620Mito cells (mitoxantrone-resistant); test: Neutral red uptake viability assay, SW620Mito; assay type: cell-based, human; details: 72 h, n = 3, read-out: Cytotoxic activity IC50 (95% CI)
MEASURE NAME: IC50

These recorded examples may help you get a feel for the data.
Any idea what its IC50 is? The compound is O=C1N/C(=C/c2cccc(-[c-]3cccc3)c2)C(=O)N2CCC[C@@H]12.[Fe+2].c1cc[cH-]c1 [(S,E)-4c] > 100 µM

Any idea what its IC50 is? The compound is O=C1N/C(=C\c2ccc(-[c-]3cccc3)cc2)C(=O)N2CCC[C@@H]12.[Fe+2].c1cc[cH-]c1 [(S,Z)-4d] > 100 µM

Any idea what its IC50 is? The compound is O=C1N/C(=C\c2ccccc2-[c-]2cccc2)C(=O)N2CCC[C@@H]12.[Fe+2].c1cc[cH-]c1 [(S,Z)-4b] 44.9 µM

Then this compound:
Any idea what its IC50 is? The compound is O=C1N/C(=C\[c-]2cccc2)C(=O)N2CCC[C@@H]12.[Fe+2].c1cc[cH-]c1 [(S,Z)-4a] > 100 µM

---

tested on: ABCG2-overexpressing SW620Mito cells; experiment: MDR reversal assay (ERP), SW620Mito; type: cell-based, human; settings: mitoxantrone, SW620Mito
MEASURE NAME: ERP = IC50(drug)MDR/IC50(drug+4)MDR
Keep the answer to the number alone.

Any idea what its ERP = IC50(drug)MDR/IC50(drug+4)MDR is? The compound is O=C1N/C(=C\c2ccc(-[c-]3cccc3)cc2)C(=O)N2CCC[C@@H]12.[Fe+2].c1cc[cH-]c1 [(S,Z)-4d] 10.3

Any idea what its ERP = IC50(drug)MDR/IC50(drug+4)MDR is? The compound is O=C1N/C(=C/c2ccccc2)C(=O)N2CCC[C@@H]12 [(S,E)-4e] 0.82

Any idea what its ERP = IC50(drug)MDR/IC50(drug+4)MDR is? The compound is O=C1N/C(=C/c2cccc(-[c-]3cccc3)c2)C(=O)N2CCC[C@@H]12.[Fe+2].c1cc[cH-]c1 [(S,E)-4c] 0.87

Any idea what its ERP = IC50(drug)MDR/IC50(drug+4)MDR is? The compound is O=C1N/C(=C\[c-]2cccc2)C(=O)N2CCC[C@@H]12.[Fe+2].c1cc[cH-]c1 [(S,Z)-4a] 4.61

Next:
Any idea what its ERP = IC50(drug)MDR/IC50(drug+4)MDR is? The compound is O=C1N/C(=C\c2ccccc2-[c-]2cccc2)C(=O)N2CCC[C@@H]12.[Fe+2].c1cc[cH-]c1 [(S,Z)-4b] 9.11

Any idea what its ERP = IC50(drug)MDR/IC50(drug+4)MDR is? The compound is O=C1N/C(=C\c2ccccc2)C(=O)N2CCC[C@@H]12 [(S,Z)-4e] 1.01

---

synergy score (in parentheses) for assorted compounds
tested on: SW620 cells; assay: Synergy determination (Bliss model, SynergyFinder), SW620; assay type: cell-based, human; conditions: drug methotrexate + additive;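 note: score below −10 means likely antagonism and −10 to 10 means additive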
Keep the answer to the number alone.

Write down the reported synergy score (in parentheses) of O=C1N/C(=C\c2ccc(-[c-]3cccc3)cc2)C(=O)N2CCC[C@@H]12.[Fe+2].c1cc[cH-]c1 [(S,Z)-4d] , test system: SW620 cells. −2.64

Write down the reported synergy score (in parentheses) of O=C1N/C(=C\[c-]2cccc2)C(=O)N2CCC[C@@H]12.[Fe+2].c1cc[cH-]c1 [(S,Z)-4a] , test system: SW620 cells. −5.99

Write down the reported synergy score (in parentheses) of O=C1N/C(=C/c2cccc(-[c-]3cccc3)c2)C(=O)N2CCC[C@@H]12.[Fe+2].c1cc[cH-]c1 [(S,E)-4c] , test system: SW620 cells. −4.31

Next:
Write down the reported synergy score (in parentheses) of O=C1N/C(=C\c2ccccc2-[c-]2cccc2)C(=O)N2CCC[C@@H]12.[Fe+2].c1cc[cH-]c1 [(S,Z)-4b] , test system: SW620 cells. 3.26

---

IC50 at 72 h for assorted molecules
experiment: Neutral red uptake viability assay, SW620; format: cell-based, human; settings: human, SW620 colon cancer cells; SW620, 72 h, n = 3; read-out: Cytotoxic activity IC50 (95% CI)

Any idea what its IC50 at 72 h is? The molecule is O=C1N/C(=C\c2ccccc2)C(=O)N2CCC[C@@H]12 [(S,Z)-4e] > 100 µM

Then this molecule:
Any idea what its IC50 at 72 h is? The molecule is O=C1N/C(=C/c2ccccc2)C(=O)N2CCC[C@@H]12 [(S,E)-4e] > 100 µM

---

tested on: SW620V cells (vincristine-resistant); test: Neutral red uptake viability assay, SW620V; format: cell-based, human; conditions: 1 μM, 72 h, n = 3, ± SD
survival rate for assorted molecules
// return numeric value only (unit: %, not printed)

Any idea what its survival rate is? The molecule is O=C1N/C(=C/c2cccc(-[c-]3cccc3)c2)C(=O)N2CCC[C@@H]12.[Fe+2].c1cc[cH-]c1 [(S,E)-4c] 96

Any idea what its survival rate is? The molecule is O=C1N/C(=C/c2ccccc2)C(=O)N2CCC[C@@H]12 [(S,E)-4e] 95

Any idea what its survival rate is? The molecule is O=C1N/C(=C\[c-]2cccc2)C(=O)N2CCC[C@@H]12.[Fe+2].c1cc[cH-]c1 [(S,Z)-4a] 94

Any idea what its survival rate is? The molecule is O=C1N/C(=C\c2ccc(-[c-]3cccc3)cc2)C(=O)N2CCC[C@@H]12.[Fe+2].c1cc[cH-]c1 [(S,Z)-4d] 94

Any idea what its survival rate is? The molecule is O=C1N/C(=C\c2ccccc2-[c-]2cccc2)C(=O)N2CCC[C@@H]12.[Fe+2].c1cc[cH-]c1 [(S,Z)-4b] 92

Next:
Any idea what its survival rate is? The molecule is O=C1N/C(=C\c2ccccc2)C(=O)N2CCC[C@@H]12 [(S,Z)-4e] 98

---

system: SW620D cells (doxorubicin-resistant); test: Neutral red uptake viability assay, SW620D; type: cell-based, human; conditions: 10 μM, 72 h, n = 3, ± SD
survival rate for assorted compounds
// return numeric value only (unit: %, not printed)

These recorded examples may help you get a feel for the data.
Any idea what its survival rate is? The compound is O=C1N/C(=C\[c-]2cccc2)C(=O)N2CCC[C@@H]12.[Fe+2].c1cc[cH-]c1 [(S,Z)-4a] 93

Any idea what its survival rate is? The compound is O=C1N/C(=C\c2ccccc2)C(=O)N2CCC[C@@H]12 [(S,Z)-4e] 94

Any idea what its survival rate is? The compound is O=C1N/C(=C\c2ccc(-[c-]3cccc3)cc2)C(=O)N2CCC[C@@H]12.[Fe+2].c1cc[cH-]c1 [(S,Z)-4d] 96

Any idea what its survival rate is? The compound is O=C1N/C(=C/c2cccc(-[c-]3cccc3)c2)C(=O)N2CCC[C@@H]12.[Fe+2].c1cc[cH-]c1 [(S,E)-4c] 95

Any idea what its survival rate is? The compound is O=C1N/C(=C\c2ccccc2-[c-]2cccc2)C(=O)N2CCC[C@@H]12.[Fe+2].c1cc[cH-]c1 [(S,Z)-4b] 87

Then this compound:
Any idea what its survival rate is? The compound is O=C1N/C(=C/c2ccccc2)C(=O)N2CCC[C@@H]12 [(S,E)-4e] 95
